Target: T1, human Angiopoietin-2 (human, UniProt O15123 19-496)
T1 construct: Mostly bought recombinant protein (R&D Systems 623-AM/CF, 623-AN; biotinylated BT623) or supernatant of transfected 293F cells; also called Ang-2; rhAng-2
T1 sequence: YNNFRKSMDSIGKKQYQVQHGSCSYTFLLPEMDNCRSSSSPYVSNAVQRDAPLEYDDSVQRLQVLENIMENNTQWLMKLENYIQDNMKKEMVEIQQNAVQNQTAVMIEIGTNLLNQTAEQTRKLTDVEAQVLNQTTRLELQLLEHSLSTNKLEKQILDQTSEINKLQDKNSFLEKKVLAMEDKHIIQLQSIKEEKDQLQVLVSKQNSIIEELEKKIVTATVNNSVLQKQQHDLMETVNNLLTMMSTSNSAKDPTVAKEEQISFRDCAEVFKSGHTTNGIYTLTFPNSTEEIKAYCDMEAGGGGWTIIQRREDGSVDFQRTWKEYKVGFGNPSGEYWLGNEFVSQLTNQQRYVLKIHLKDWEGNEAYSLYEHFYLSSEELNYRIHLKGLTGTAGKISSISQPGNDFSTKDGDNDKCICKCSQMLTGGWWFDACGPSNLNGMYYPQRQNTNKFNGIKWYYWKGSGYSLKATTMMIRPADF
Test: inhibition of rhAng-2 binding to its receptor; note: test concentration or dose not given here
Recorded OD650 in inhibition assay for the following binders
Entry rule: numbers only, all in OD650.

Answered cases to consult:
binder="mAb 3.3.2 (antibody, V domains shown, Human hybridoma IgG (XenoMouse); also called 3.3.1; x3.3) VH: EVQLVESGGGLVQPGGSLRLSCAVSGFTFSSYWMSWVRQAPGKGLEWVANIKQDGSEKYYVDSVKGRFTISRDNAKNSLYLQMNSLRAEDTAVYYCARDQGIAVAGPFDYWGQGTLVTVSS VL: EIVMTQSPATLSVSPGERATLSCRASQTVSSDLAWYQQKPGQAPRLLIYGASIRATGIPARFSGSGSGTEFTLTISSLQSEDFAVYSCQQYYNWWTFGQGTKVEIKR" experimental_readout="OD650 in inhibition assay" observed_value=0.0558
binder="mAb 5.52.1 (antibody, V domains shown, Human hybridoma IgG (XenoMouse); the line 5.52 has entries of its own (347, 349; light chain L2) that differ from the clone 5.52.1 (L5); also called x5.52) VH: QVQLVESGGGVVQPGRSLRLSCAASGFTFSSYGMHWVRQAPGKGLEWVAVRWYDESNKYYADSVKGRFTISRDNSKNTLYLQMNSLRAEDTAVYYCARDPFETGTTFDYWGQGTLVTVSS VL: DIQMTQSPSSVSASVGDRVTITCRASQGISSWLAWYQQKPGKAPKLLIYAVSSLESGVPSRFSGSGSGTDFTLTISSLQPEDFATYYCQQALTFGGGTKVEIKR" experimental_readout="OD650 in inhibition assay" observed_value=0.0627
binder="mAb 6.3.1 (antibody, V domains shown, Human hybridoma IgG (XenoMouse); also called x6.3) VH: QVQLVQSGAEVKKPGASVKVSCKASGYTFTGYFMHWVPQAPGQGLEWMGWINPNSGGTNYAQNFQGRVTMTRDTSISTAYMELSRLRSDDTPVYYCARDPWQNWNSYFDYWGQGTLVTVSS VL: DIQMTQSPSSLSASVGDRVTITCRASQSIRSYLNWYQQKPGKAPKVLIYAASSLQSGVPSRFSGSGSGTDFTLTISSLQPEDFATYYCQQSYSTLCSFGQGTKLEIKR" experimental_readout="OD650 in inhibition assay" observed_value=0.0617

Continue with the binder presented below.
Entry under test: mAb 5.86.1 (antibody, V domains shown, Human hybridoma IgG (XenoMouse); also called x5.86) VH: QVQLVQSGAEVKKPGASVKVSCKASGYTFTGYHMYWVRQAPGQGLEWLGWINPNSGGTNYAQKFQGRVTMTRDTSISTAYMELSRLRSDDTAVYYCVRDQGIAAAGPFDYWCQGTLVTVSS VL: DIRMTQSPSSLSASVGDRVTITCRASQRISTYLNWYQQKPGKAPKFLIYAASSLQSGVPSRFSGSGSGTDFTLTISSLQPEDFATYYCQQSYTTPFTFGPGTKVDIKR . Its OD650 in inhibition assay was 0.0419

Values were extracted from patent US20080267971A1.
